Origin of values: patent US20150266974A1

- tested-on: T1, mouse PCSK9 (mouse, UniProt Q80W65 35-694, limits assumed)
- T1 construct: also called mPCSK9; msPCK9
- procedure-details: SPR Biacore 3000, KD at pH 5.5 over KD at pH 7.4
Listed next: entries and their corresponding KD ratio pH 5.5/7.4.
Give a plain numeric answer without units written out.

Record excerpt, results attached:
binder	KD ratio pH 5.5/7.4
5L1721H23_6L3 (antibody, V domains shown, Tested as full-length IgG; also called heavy UC-H5H23, light UC-H5L1721-6L3) VH: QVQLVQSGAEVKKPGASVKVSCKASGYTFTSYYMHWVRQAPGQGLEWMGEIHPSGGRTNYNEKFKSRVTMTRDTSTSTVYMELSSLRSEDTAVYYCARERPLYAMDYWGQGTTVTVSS VL: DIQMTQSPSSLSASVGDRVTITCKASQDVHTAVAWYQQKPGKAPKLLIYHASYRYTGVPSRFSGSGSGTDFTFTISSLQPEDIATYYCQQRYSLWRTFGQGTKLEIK	29.1
5L1721H23 (antibody, V domains shown, Triple histidine mutant of h5A10; Only CDRs printed; Full-length IgG) VH: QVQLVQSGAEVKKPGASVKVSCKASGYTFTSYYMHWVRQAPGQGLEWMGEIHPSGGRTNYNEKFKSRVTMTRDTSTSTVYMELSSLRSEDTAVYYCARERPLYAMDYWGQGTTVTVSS VL: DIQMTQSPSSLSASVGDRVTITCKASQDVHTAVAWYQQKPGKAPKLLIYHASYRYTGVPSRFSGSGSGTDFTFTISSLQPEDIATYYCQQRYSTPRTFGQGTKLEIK	25

Consider the additional binder presented here.
Q: Endpoint output: KD ratio pH 5.5/7.4 of 6L1721H23 (antibody, V domains shown, L1L3-based mutant; Full-length IgG) VH: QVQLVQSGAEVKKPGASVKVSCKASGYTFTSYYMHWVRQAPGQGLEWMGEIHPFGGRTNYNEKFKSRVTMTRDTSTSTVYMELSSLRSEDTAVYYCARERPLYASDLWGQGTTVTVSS VL: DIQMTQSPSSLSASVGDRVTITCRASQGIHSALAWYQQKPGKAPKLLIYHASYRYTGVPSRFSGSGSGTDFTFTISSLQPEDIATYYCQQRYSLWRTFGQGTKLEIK . Value?
Ans: 5
